Hello, the source for this data is ChEMBL document CHEMBL1138044, in case you need it.

assay system: Adenosine receptor A1 (Bos taurus) (UniProt P28190)
Sequence (P28190 whole entry): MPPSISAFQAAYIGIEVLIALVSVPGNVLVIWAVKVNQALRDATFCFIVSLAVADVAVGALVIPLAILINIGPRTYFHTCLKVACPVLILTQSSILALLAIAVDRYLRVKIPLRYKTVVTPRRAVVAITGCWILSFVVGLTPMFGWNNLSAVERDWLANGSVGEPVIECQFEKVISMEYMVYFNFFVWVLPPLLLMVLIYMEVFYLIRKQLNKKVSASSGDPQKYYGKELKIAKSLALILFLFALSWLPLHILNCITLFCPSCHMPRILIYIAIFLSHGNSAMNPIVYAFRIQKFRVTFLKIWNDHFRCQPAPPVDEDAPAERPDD
protocol text: Inhibition of [3H]DPCPX binding to adenosine A1 receptor in bovine brain membranes at 10 uM
Type: cell membranes
We use 40% as the dividing line for inhibition: on or above the line is 1, below is 0.

Completed entries (count: 5):
# chemical smiles, assay system, category label
records = [
    ("COc1ccc(-n2nc3c(NC(=O)c4ccccc4)nc4c([N+](=O)[O-])cccc4n3c2=O)cc1", "Adenosine receptor A1 (Bos taurus) (UniProt P28190)", 0),
    ("COc1ccc(-n2nc3c(N(C(=O)c4ccccc4)C(=O)c4ccccc4)nc4c([N+](=O)[O-])cccc4n3c2=O)cc1", "Adenosine receptor A1 (Bos taurus) (UniProt P28190)", 0),
    ("O=C(Nc1nc2c([N+](=O)[O-])cccc2n2c(=O)n(-c3ccccc3)nc12)c1ccccc1", "Adenosine receptor A1 (Bos taurus) (UniProt P28190)", 0),
    ("O=C(Nc1nc2ccccc2n2c(=O)n(-c3ccc([N+](=O)[O-])cc3)nc12)C(c1ccccc1)c1ccccc1", "Adenosine receptor A1 (Bos taurus) (UniProt P28190)", 0),
    ("O=C(Nc1nc2ccccc2n2c(=O)n(-c3ccc([N+](=O)[O-])cc3)nc12)c1ccccc1", "Adenosine receptor A1 (Bos taurus) (UniProt P28190)", 1),
]

Data request: Hello, I need to know if `COc1ccc(-n2nc3c(NC(C)=O)nc4c([N+](=O)[O-])cccc4n3c2=O)cc1` has measured inhibition not below 40%. Thanks!
Data returned: 0

----------
assay system: Adenosine receptor A2a (Homo sapiens, UniProt P29274)
Sequence (P29274 whole entry): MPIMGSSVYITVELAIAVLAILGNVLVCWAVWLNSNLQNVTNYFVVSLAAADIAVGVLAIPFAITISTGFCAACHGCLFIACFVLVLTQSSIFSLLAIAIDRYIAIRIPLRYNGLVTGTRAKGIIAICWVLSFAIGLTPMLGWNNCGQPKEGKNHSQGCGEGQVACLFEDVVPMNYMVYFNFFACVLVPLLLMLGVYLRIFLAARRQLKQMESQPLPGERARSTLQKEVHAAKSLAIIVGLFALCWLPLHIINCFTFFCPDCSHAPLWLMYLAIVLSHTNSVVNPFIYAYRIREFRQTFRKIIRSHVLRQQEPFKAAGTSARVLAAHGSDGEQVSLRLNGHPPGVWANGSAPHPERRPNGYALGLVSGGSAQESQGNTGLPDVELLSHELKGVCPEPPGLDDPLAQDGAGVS
protocol text: Inhibition of [3H]NECA binding to human adenosine A2A receptor at 10 uM
Classify as follows. Reported inhibition greater than or equal to 20%: 1. Reported inhibition below: 0.

Recorded results for 3 molecules are shown here.
# chemical smiles, category label
rows = [
    ("COc1ccc(-n2nc3c(NC(=O)C(c4ccccc4)c4ccccc4)nc4c([N+](=O)[O-])cccc4n3c2=O)cc1", 0),
    ("O=C(Nc1nc2ccccc2n2c(=O)n(-c3ccccc3)nc12)C(c1ccccc1)c1ccccc1", 1),
    ("CC(=O)Nc1nc2ccccc2n2c(=O)n(-c3ccccc3)nc12", 1),
]

Data request: Has `COc1ccc(-n2nc3c(NC(=O)C(c4ccccc4)c4ccccc4)nc4c(N)cccc4n3c2=O)cc1` a recorded inhibition greater than or equal to 20%?
Data returned: 1

Data request: Confirm if inhibition reported for the molecule `COc1ccc(-n2nc3c(N(C(=O)c4ccccc4)C(=O)c4ccccc4)nc4ccccc4n3c2=O)cc1` is 20% or above.
Data returned: 1

Data request: Form field: inhibition at least 20%? Entry: `O=C(Nc1nc2c([N+](=O)[O-])cccc2n2c(=O)n(-c3ccccc3)nc12)c1ccccc1`
Data returned: 1

Data request: Could you tell me if the measured inhibition of `COc1ccc(-n2nc3c(NC(C)=O)nc4ccccc4n3c2=O)cc1` reaches 20% or more?
Data returned: 0

Data request: Has `COc1ccc(-n2nc3c(NC(=O)c4ccccc4)nc4c(N)cccc4n3c2=O)cc1` a recorded inhibition greater than or equal to 20%?
Data returned: 1

Data request: Does `O=C(c1ccccc1)N(C(=O)c1ccccc1)c1nc2ccccc2n2c(=O)n(-c3ccccc3)nc12` have a reported inhibition of at least 20%?
Data returned: 1

Data request: Tell me whether inhibition is at least 20% here: `O=C(Nc1nc2c([N+](=O)[O-])cccc2n2c(=O)n(-c3ccccc3)nc12)C(c1ccccc1)c1ccccc1`
Data returned: 1

----------
Measured Ki (Adenosine receptor A1 (Homo sapiens, UniProt P30542))
Give the figure together with its unit, number first.

Answered cases to consult:
# chemical smiles, value measured
measured = [
    ("O=C(Nc1nc2ccccc2n2c(=O)n(-c3ccccc3)nc12)C(c1ccccc1)c1ccccc1", "18.8 nM"),
    ("O=C(Nc1nc2ccccc2n2c(=O)n(-c3ccccc3)nc12)c1ccccc1", "87.8 nM"),
]

Would you kindly look at the next entry?
Data request: Query: Ki; subject: `COc1ccc(-n2nc3c(NC(C)=O)nc4c(N)cccc4n3c2=O)cc1`
Data returned: 2700 nM

----------
pKi listing for selected molecules.
assay system: Adenosine receptor A3 (Homo sapiens)
pKi field: float, defined as -log10 of concentration (mol/L).

Reference set, count: 5
# chemical smiles, pKi
measured = [
    ("COc1ccc(-n2nc3c(NC(=O)c4ccccc4)nc4c(N)cccc4n3c2=O)cc1", 9.00),
    ("COc1ccc(-n2nc3c(NC(=O)c4ccccc4)nc4ccccc4n3c2=O)cc1", 8.54),
    ("COc1ccc(-n2nc3c(NC(=O)c4ccccc4)nc4c([N+](=O)[O-])cccc4n3c2=O)cc1", 6.66),
    ("COc1ccc(-n2nc3c(NC(=O)C(c4ccccc4)c4ccccc4)nc4ccccc4n3c2=O)cc1", 7.36),
    ("Nc1cccc2c1nc(NC(=O)c1ccccc1)c1nn(-c3ccccc3)c(=O)n12", 7.66),
]

Data request: Could you tell me which pKi is on file for `O=C(c1ccccc1)N(C(=O)c1ccccc1)c1nc2ccccc2n2c(=O)n(-c3ccccc3)nc12` ?
Data returned: 8.28

Data request: Which pKi value is on record for `COc1ccc(-n2nc3c(NC(C)=O)nc4ccccc4n3c2=O)cc1` ?
Data returned: 7.45

Data request: // returns reported pKi for input `COc1ccc(-n2nc3c(NC(C)=O)nc4c(N)cccc4n3c2=O)cc1`
Data returned: 8.26

----------
Here the recorded pIC50 is given for each entry.
assay system: Adenosine receptor A3 (Homo sapiens, UniProt P0DMS8)
Sequence (P0DMS8 whole entry): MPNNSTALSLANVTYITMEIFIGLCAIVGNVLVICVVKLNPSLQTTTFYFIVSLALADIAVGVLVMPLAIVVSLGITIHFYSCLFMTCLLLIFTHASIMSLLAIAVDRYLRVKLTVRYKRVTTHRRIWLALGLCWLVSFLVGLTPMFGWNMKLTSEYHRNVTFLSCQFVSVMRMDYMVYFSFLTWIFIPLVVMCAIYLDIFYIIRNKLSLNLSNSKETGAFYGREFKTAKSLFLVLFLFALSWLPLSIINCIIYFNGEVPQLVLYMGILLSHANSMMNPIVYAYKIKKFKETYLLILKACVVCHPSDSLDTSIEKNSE
protocol text: Antagonist activity against Cl-IB-MECA inhibited cAMP level in CHO cells transfected with human A3 receptor
Reminder that pIC50 means the negative base-10 logarithm of the concentration expressed in mol/L.

# chemical smiles, assay system, pIC50
records = [
    ("COc1ccc(-n2nc3c(NC(=O)c4ccccc4)nc4c(N)cccc4n3c2=O)cc1", "Adenosine receptor A3 (Homo sapiens, UniProt P0DMS8)", 8.07),
    ("COc1ccc(-n2nc3c(NC(=O)C(c4ccccc4)c4ccccc4)nc4ccccc4n3c2=O)cc1", "Adenosine receptor A3 (Homo sapiens, UniProt P0DMS8)", 6.67),
    ("COc1ccc(-n2nc3c(N(C(=O)c4ccccc4)C(=O)c4ccccc4)nc4ccccc4n3c2=O)cc1", "Adenosine receptor A3 (Homo sapiens, UniProt P0DMS8)", 7.50),
]

Data request: Requested read-out: pIC50. Entry: `O=C(c1ccccc1)N(C(=O)c1ccccc1)c1nc2ccccc2n2c(=O)n(-c3ccccc3)nc12`
Data returned: 7.55

----------
assay system: Adenosine receptor A1 (Homo sapiens)
Sequence (whole entry): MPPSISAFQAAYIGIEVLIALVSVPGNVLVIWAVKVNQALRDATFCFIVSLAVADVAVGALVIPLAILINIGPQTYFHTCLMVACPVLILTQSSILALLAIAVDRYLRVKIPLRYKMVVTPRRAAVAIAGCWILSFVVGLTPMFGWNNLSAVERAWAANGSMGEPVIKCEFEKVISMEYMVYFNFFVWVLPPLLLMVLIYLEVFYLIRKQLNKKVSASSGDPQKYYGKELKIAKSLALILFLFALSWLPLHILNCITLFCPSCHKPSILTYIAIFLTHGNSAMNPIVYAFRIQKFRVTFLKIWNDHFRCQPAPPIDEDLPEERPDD
protocol text: Inhibition of [3H]DPCPX binding to human adenosine A1 receptor at 10 uM
Records here are stratified by inhibition; strata: low bracket (below 2%), middle bracket (2% to below 30%), high bracket (30% or more)

Recorded results for 8 molecules are shown here.
# chemical smiles, category label
records = [
    ("Nc1cccc2c1nc(NC(=O)C(c1ccccc1)c1ccccc1)c1nn(-c3ccccc3)c(=O)n12", "middle bracket"),
    ("COc1ccc(-n2nc3c(NC(=O)C(c4ccccc4)c4ccccc4)nc4ccccc4n3c2=O)cc1", "middle bracket"),
    ("CC(=O)Nc1nc2c(N)cccc2n2c(=O)n(-c3ccccc3)nc12", "high bracket"),
    ("O=C(Nc1nc2c([N+](=O)[O-])cccc2n2c(=O)n(-c3ccccc3)nc12)C(c1ccccc1)c1ccccc1", "middle bracket"),
    ("COc1ccc(-n2nc3c(NC(C)=O)nc4ccccc4n3c2=O)cc1", "high bracket"),
    ("O=C(Nc1nc2c([N+](=O)[O-])cccc2n2c(=O)n(-c3ccccc3)nc12)c1ccccc1", "middle bracket"),
    ("COc1ccc(-n2nc3c(NC(=O)C(c4ccccc4)c4ccccc4)nc4c(N)cccc4n3c2=O)cc1", "low bracket"),
    ("COc1ccc(-n2nc3c(NC(=O)c4ccccc4)nc4c(N)cccc4n3c2=O)cc1", "high bracket"),
]

Data request: State the band of `O=C(c1ccccc1)N(C(=O)c1ccccc1)c1nc2ccccc2n2c(=O)n(-c3ccccc3)nc12`
Data returned: low bracket

Data request: Which band does `COc1ccc(-n2nc3c(NC(=O)c4ccccc4)nc4ccccc4n3c2=O)cc1` fall in?
Data returned: high bracket

Data request: Category of `COc1ccc(-n2nc3c(NC(=O)C(c4ccccc4)c4ccccc4)nc4c([N+](=O)[O-])cccc4n3c2=O)cc1` , please.
Data returned: middle bracket
